Entries and their measured growth follow.
Tested on: MDA-MB-468 breast
Assay: NCI-60 one-dose screen, 48 h (100 = growth as untreated, 0 = no growth, -100 = all killed)
Conditions: 10 µM unless noted
Procedure: Growth inhibition of the MDA-MB-468 human Breast tumor cell line is measured as a screen for anti-cancer activity. Cells are grown in 96 well plates and exposed to the test compound for 48 hours. Compounds are tested at a single concentration, which is 10^-5 M for most compounds. The reported endpoint is percent growth (GI% or GIPRCNT), where numbers from 0 - 100% represent growth inhibition, and numbers from -100% - 0 represent cell death. […]
This is part of a sample that, as a whole, favours compounds with a hit. Of some 83,000 tested, about 20% had one in any assay.
Field format: number, assumed %, no unit text.

• O=C(c1ccccc1)C1CCC1 = 110
• C=CCn1c(SCC(=O)Nc2ccc(C(=O)/C=C/c3ccccc3)cc2)nnc1-c1ccc(OC)c(OC)c1 = 59.5
• O=C(/C(=C/c1ccccc1)CN1CCCCC1)c1ccccc1 = -72.8

Req: Look up growth of `C#Cc1cc(C(=O)Nc2ccc(CN3CCN(C)CC3)c(C(F)(F)F)c2)ccc1C` and report it.
Resp: 66.5

Req: Look up growth of `CCn1c(=S)[nH]c2c(=O)n(C)c(=O)n(C)c21` and report it.
Resp: 100

Req: Look up growth of `N#Cc1cc2[nH]c3ccc(OC(F)(F)F)cc3c2oc1=O` and report it.
Resp: 95.2

Req: Look up growth of `COc1cc2nc(Cc3ccc(C)cc3)[nH]c(=O)c2cc1OC` and report it.
Resp: 98.8

Req: Look up growth of CC(C)C(NC(=O)CN)C(=O)O (stereo unspecified) and report it.
Resp: 104

Req: Look up growth of `O=S(=O)(O)c1cccc2cccnc12` and report it.
Resp: 100

Req: Look up growth of COc1ccc(C2C(C#N)=C(N)Oc3c2ccc2ccccc32)cc1 (stereo unspecified) and report it.
Resp: 14.5

Req: Look up growth of `COC(=O)c1c2c(c(C)[n+]([O-])c1C)C(=O)C=C(NCc1ccc(OC)cc1)C2=O` and report it.
Resp: -61

====

Test system: BT-549 breast
Experiment: NCI-60 one-dose screen, 48 h
Conditions: 10 µM
Compounds without any hit were thinned out: in the full panel of roughly 83,000, 20% have a hit. Activity calls are given as the source filed them. How the source made its calls: active means growth percent below 10; inactive means the rest.
Pick one: active, inactive

These solved cases illustrate the format of a correct answer.
* COc1cc(C2CC(c3ccc(Oc4ccc(Cl)cc4)cc3)=NN2c2nc(-c3ccc(Cl)cc3)c(C#N)c(N3CCOCC3)n2)cc(OC)c1OC (stereo not given) | inactive
* CC(C)(C)c1cc(/C=C2\S/C(=N/c3ncn[nH]3)NC2=O)cc(C(C)(C)C)c1O | active
* Cn1cc(-c2nnc(N)nc2-c2c[nH]c3ccc(F)cc23)c2cc(Br)cnc21 | inactive
* Cc1cc(N=C2NC(=O)S/C2=C\c2ccc(F)cc2)n[nH]1 | active
* COc1cc(Nc2nc(O)c(/C=C3\C=Nc4ccccc43)s2)cc(OC)c1OC | active

Req: What was the test verdict on `C#C[C@]1(O)CC[C@H]2[C@@H]3CC=C4c5sc(Nc6ccc(C(F)(F)F)cn6)nc5CC[C@]4(C)[C@H]3CC[C@@]21C` ?
Resp: active

Req: What was the test verdict on O=C1NC2C=CC=CC2/C1=C1/SC(=S)N(C2CC(=O)N(c3ccc(Br)cc3)C2=O)C1=O (stereo not given) ?
Resp: inactive

Req: What was the test verdict on `COc1ccc2[nH]cc(-c3nc(N)nnc3-c3cn(C)c4ncc(Br)cc34)c2c1` ?
Resp: active

Req: What was the test verdict on `O=C1NC(=S)S/C1=C\c1cn(-c2ccccc2)nc1-c1ccc([N+](=O)[O-])cc1` ?
Resp: active

Req: What was the test verdict on `COc1cccc(C(=O)CSc2nc(-c3ccc(OCc4ccccc4)c(OC)c3)c(C#N)c(=O)[nH]2)c1` ?
Resp: inactive

====

Test system: MDA-MB-468 breast
Test: NCI-60 one-dose screen, 48 h (100 = growth as untreated, 0 = no growth, -100 = all killed)
Conditions: 10 µM unless noted
Method: Growth inhibition of the MDA-MB-468 human Breast tumor cell line is measured as a screen for anti-cancer activity. Cells are grown in 96 well plates and exposed to the test compound for 48 hours. Compounds are tested at a single concentration, which is 10^-5 M for most compounds. The reported endpoint is percent growth (GI% or GIPRCNT), where numbers from 0 - 100% represent growth inhibition, and numbers from -100% - 0 represent cell death. […]
About 83,000 compounds went through this panel and 20% of them were active in at least one assay; those are over-represented in the sample as a whole.
Answer 0 if growth is under 60%, and 1 if it is 60% or more.

These solved cases illustrate the format of a correct answer.
- O=C(CNc1ccc2c(c1)C(=O)c1ccccc1C2=O)Nc1ccc2c(c1)C(=O)c1ccccc1C2=O: 0
- CC1(C)CC[C@]2(CO)CC[C@]3(C)[C@H](CC[C@@H]4[C@@]5(C)CC[C@H](O)C(C)(C)[C@@H]5CC[C@]43C)[C@H]2[C@H]1O: 1
- CCOC(=O)c1c(O)c2cc(-c3ccccc3)nc(OCC)c2c(=O)n1C: 1
- Cc1cc(=O)[nH]c(N/N=C/c2cc(Br)ccc2O)n1: 0
- CSc1nc(O)c(-c2ccccc2)c(=O)[nH]1: 1

Req: Is growth at least 60%? Consider `O=C1COCCN1c1ccc(Nc2nc(Cl)nc(OCc3cn(Cc4ccccc4)nn3)n2)cc1`
Resp: 1

Req: Is growth at least 60%? Consider `CN1CCN(CCCCCC(=O)Nc2nc(-c3cccc(NS(=O)(=O)c4cccc5c(N(C)C)cccc45)c3)cs2)CC1`
Resp: 1

Req: Is growth at least 60%? Consider `CN(C)c1ccc(/C=N\Nc2cc(=O)[nH]c3ccc(Cl)cc23)cc1`
Resp: 1

Req: Is growth at least 60%? Consider `Cc1cccc(N2C(=O)/C(=C/C(Cl)=C/c3ccc([N+](=O)[O-])cc3)SC2=S)c1C`
Resp: 0

====

System: MDA-MB-468 breast
Experiment: NCI-60 one-dose screen, 48 h
Conditions: 10 µM unless noted
The panel holds about 83,000 compounds, 20% with a hit somewhere; the sample as a whole holds those more often. Active and inactive are the calls of the source. The calls were made as follows: active = growth percent below 10; inactive = the rest.
Pick one: 1 = active, 0 = inactive

* CCOc1cc(Br)c(C(C)NC(=O)c2cccc(OC)c2)cc1OCC (stereo not given) | 0

Req: What was the test verdict on `Cc1cnc(Nc2ccc(N3CCN(C)CC3)cc2)nc1Nc1ccc(Cl)c(NS(=O)(=O)C(C)(C)C)c1` ?
Resp: 0

Req: What was the test verdict on `Oc1c(Br)cc(Br)c2ccc(Cn3cc(-c4ccc(C(F)(F)F)cc4)nn3)nc12` ?
Resp: 0

Req: What was the test verdict on COc1ccc(C2=C(CN)C(O)NC(=NCC(=O)c3ccc4ccccc4c3)N2)cc1 (stereo not given) ?
Resp: 0

Req: What was the test verdict on `CSc1ccc(/C(=N/N=C(N)N)c2ccc(F)cc2)cc1` ?
Resp: 1

Req: What was the test verdict on `CNCC[C@H](Oc1cccc2ccccc12)c1cccs1` ?
Resp: 0

====

Entries and their measured growth follow.
Test system: MDA-MB-468 breast
Assay: NCI-60 one-dose screen, 48 h (100 = growth as untreated, 0 = no growth, -100 = all killed)
Conditions: 10 µM unless noted
Compounds without any hit were thinned out: in the full panel of roughly 83,000, 20% have a hit.
Field format: number, assumed %, no unit text.

* COc1ccc(C(=O)Cn2c(C(=O)c3ccc(OC)cc3)nc3ccccc32)cc1 | 17
* COc1cc(/C=N/Nc2nc(-c3ccc(F)cc3)c(C#N)c(N3CCOCC3)n2)ccc1O | 87.4

Req: Look up growth of `O=C1OC(c2ccc(Cl)c(Cl)c2)=C/C1=C/c1cccc([N+](=O)[O-])c1` and report it.
Resp: 92.3

Req: Look up growth of `COC(=O)[C@]12CC[C@@H](C)[C@H](C)[C@@H]1C1=CC[C@@H]3[C@@]4(C)C(c5cnco5)=C[C@@](C)(CO)C4=CC[C@@]3(C)[C@]1(C)CC2` and report it.
Resp: 17

====

System: MDA-MB-468 breast
Test: NCI-60 one-dose screen, 48 h (100 = growth as untreated, 0 = no growth, -100 = all killed)
Conditions: 10 µM unless noted
Compounds without any hit were thinned out: in the full panel of roughly 83,000, 20% have a hit.
Answer FALSE if growth is under 70%, and TRUE if it is 70% or more.

These solved cases illustrate the format of a correct answer.
• O=C1/C(=C/c2ccc([N+](=O)[O-])o2)Oc2ccc(Br)cc21 = FALSE
• Cn1c(SCC(=O)c2ccco2)nc2ccccc2c1=O = FALSE

Req: Is growth at least 70%? Consider `OCCOCC(F)(F)F`
Resp: TRUE

Req: Is growth at least 70%? Consider `CCOC(=O)C(Cc1ccc(OC)cc1)C(=O)OCC`
Resp: FALSE

Req: Is growth at least 70%? Consider `O=C(Nc1ccc(Nc2ccncc2)cc1)c1ccc([N+](=O)[O-])cc1`
Resp: FALSE

Req: Is growth at least 70%? Consider CC(C)N1CC(=O)N2CSCC2C1=O (stereo not drawn)
Resp: TRUE

Req: Is growth at least 70%? Consider `CN1CCN(CCCOc2ccc3nc(Nc4ccc(F)c(F)c4)ccc3c2)CC1`
Resp: FALSE

Req: Is growth at least 70%? Consider `Cc1nc(C)c(C)nc1C`
Resp: TRUE

Req: Is growth at least 70%? Consider `NN1C(=O)CSC1=S`
Resp: TRUE

Req: Is growth at least 70%? Consider CCN(CC)CC(O)c1cc(-c2ccc(Cl)cc2)nc2cc(Cl)ccc12 (stereo not drawn)
Resp: FALSE

Req: Is growth at least 70%? Consider `Cc1sc(NC(=O)c2ccc(C(C)(C)C)cc2)c(C(=O)O)c1C`
Resp: TRUE

Req: Is growth at least 70%? Consider `CC(=O)c1cc(O)ccc1O`
Resp: TRUE

Req: Is growth at least 70%? Consider `CC(=O)Cc1nsc(NC(=O)c2cc(-c3cc(Cl)cc(Cl)c3)oc2C)n1`
Resp: TRUE
